Hello, the source for this data is PubChem BioAssay AID1851, in case you need it.

Target: Cytochrome P450 2C19 (Homo sapiens) (UniProt P33261)
Sequence (P33261 whole entry, looked up): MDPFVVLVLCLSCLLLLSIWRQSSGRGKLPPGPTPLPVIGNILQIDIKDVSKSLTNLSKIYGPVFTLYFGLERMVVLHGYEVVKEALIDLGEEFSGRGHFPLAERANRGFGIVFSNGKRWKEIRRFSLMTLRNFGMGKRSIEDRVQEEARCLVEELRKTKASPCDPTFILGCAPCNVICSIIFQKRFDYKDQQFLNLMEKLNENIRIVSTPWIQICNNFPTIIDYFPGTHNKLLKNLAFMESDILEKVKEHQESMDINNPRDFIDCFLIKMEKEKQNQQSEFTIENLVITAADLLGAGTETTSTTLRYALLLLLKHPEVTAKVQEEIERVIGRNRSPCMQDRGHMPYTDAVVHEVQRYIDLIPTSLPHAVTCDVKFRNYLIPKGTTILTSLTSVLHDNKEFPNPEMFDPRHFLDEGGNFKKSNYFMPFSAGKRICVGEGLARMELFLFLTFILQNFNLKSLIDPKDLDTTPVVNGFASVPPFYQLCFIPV
Assay: Cytochrome panel assay with activity outcomes
Details: recombinant CYP, pro-luciferin dealkylation, luminescence, p450-cyp2c19; series mostly up to 57.1 µM
The campaign covered roughly 16,000 compounds. About 5,800 (36%) were called active. Not shown: some 23% with an inconclusive outcome. The call rests on the fitted dose curve; in most records, active means well fitted curve in the direction sought with a large enough effect; inconclusive means small, poorly fitted or top-dose-only effect, or effect the other way; inactive means no such curve, though single readings can be large or run the other way. This is one part of the list.
Use one of these outcomes when replying: 1 (yes) for active, 0 (no) for inactive

Below are worked cases with known answers.
                                   molecule  assigned_class
0  CC1CCN(C(NC(=O)c2ccco2)C(=O)c2ccccc2)CC1 (stereo not given)         1 (yes)
1  Cc1ccc(C(=O)O)cc1N1C(=O)c2cccc3cc(Br)cc(c23)C1=O         1 (yes)
2  CCOc1cc2[nH]c(=O)n(CCCC(=O)NCc3ccc(OC)cc3)c(=O)c2cc1OCC          0 (no)
3  CCS(=O)(=O)N(C)[C@@H]1c2cc(C#N)ccc2OC(C)(C)[C@H]1O          0 (no)
4  COc1ccccc1CNC(=O)CCCn1c(=O)c2ccccc2n(CC(=O)NC2CCCC2)c1=O         1 (yes)

Task: Assay result, entry "CS(=O)(=O)Nc1ccc(S(=O)(=O)N2CCOCC2)cc1" — outcome?
Result: 0 (no)

Task: Assay result, entry "c1ccc(-c2c3ccccc3nc3[nH]c4ccccc4c23)cc1" — outcome?
Result: 1 (yes)

Task: Assay result, entry "O=c1[nH]c2ccccc2n1CCCN1CCN(C(c2ccccc2)c2ccccc2)CC1" — outcome?
Result: 0 (no)

Task: Assay result, entry "O=c1c2ccccc2nc2n1CCc1c-2[nH]c2ccccc12" — outcome?
Result: 0 (no)

Task: Assay result, entry "C[C@@H]1CN(CCCn2c3ccccc3c3ccccc32)C[C@H](C)N1" — outcome?
Result: 1 (yes)

----------
Biological target: Cytochrome P450 2C19 (Homo sapiens)
Assay: Cytochrome panel assay with activity outcomes
Conditions: recombinant CYP, pro-luciferin dealkylation, luminescence, p450-cyp2c19; series mostly up to 57.1 µM
The whole screen tested about 16,000 compounds, of which about 5,800 (36%) were called active. Roughly 23% stayed inconclusive and do not appear here. Calls follow the shape of the dose curve; as a rule, active = well fitted curve in the direction sought with a large enough effect; inconclusive = small, poorly fitted or top-dose-only effect, or effect the other way; inactive = no such curve, though single readings can be large or run the other way. The list shows a part of the results.
Use one of these outcomes when replying: Yes = active, No = inactive

>>> df
                                 smiles_str  assigned_class
0  Cc1ccccc1NC(=O)c1cnc(Nc2nc3ccccc3s2)nc1C              No

Task: Assay result, entry "Cc1cccc(C(=O)Nc2nnc(-c3ccc(C(C)(C)C)cc3)s2)c1" — outcome?
Result: No

Task: Assay result, entry "Cc1ccc(Nc2nc(-c3sc(NC(=O)c4ccc([N+](=O)[O-])cc4)nc3C)cs2)cc1" — outcome?
Result: Yes

Task: Assay result, entry "COC(=O)c1cnn(C(=O)c2cc(OC)ccc2Br)c1N" — outcome?
Result: Yes

Task: Assay result, entry "Cc1ccc(Nc2nc(-c3sc(NC(=O)c4cccc(Cl)c4)nc3C)cs2)cc1" — outcome?
Result: Yes

Task: Assay result, entry "Cc1c(-c2c(C#N)c(N)nc3c2CCCCCC3)cnn1C" — outcome?
Result: Yes

Task: Assay result, entry "Cc1nc(NC(=O)c2ccccc2)sc1-c1csc(Nc2ccc(Cl)cc2)n1" — outcome?
Result: Yes

Task: Assay result, entry "Cc1nc(NC(=O)c2ccccc2)sc1-c1csc(Nc2cccc(F)c2)n1" — outcome?
Result: Yes

Task: Assay result, entry "Nc1ncnc(N(c2ccccc2)C2CCCCC2)c1[N+](=O)[O-]" — outcome?
Result: No

Task: Assay result, entry "N#Cc1c(N)nc2c(c1-c1cccc(O)c1)CCCCCC2" — outcome?
Result: Yes

Task: Assay result, entry "Cc1ccc(/C=C/c2nnc(-c3ccc(C)cc3)o2)cc1" — outcome?
Result: No

----------
Target: Cytochrome P450 2C19 (Homo sapiens)
Experiment: Cytochrome panel assay with activity outcomes
Conditions: recombinant CYP, pro-luciferin dealkylation, luminescence, p450-cyp2c19; series mostly up to 57.1 µM
The whole screen tested about 16,000 compounds, of which about 5,800 (36%) were called active. Roughly 23% stayed inconclusive and do not appear here. The list shows a part of the results.
OBSERVABLE: AC50

Some entries whose results are on file:
COMPOUND	TGT	AC50
CCOc1ccc(Cc2nc(C)c(CC(=O)N3CCOCC3)c(=O)[nH]2)cc1	Cytochrome P450 2C19 (Homo sapiens)	inactive
CCOC(=O)c1cnn(-c2nc(-c3cccc(F)c3)cs2)c1C(F)(F)F	Cytochrome P450 2C19 (Homo sapiens)	2.82 µM (active)
O=C1Oc2ccccc2C2(O)C3CCCCCC3C12 (stereo unspecified)	Cytochrome P450 2C19 (Homo sapiens)	1.41 µM (active)
CCN(CC)S(=O)(=O)c1cc(C(=O)OC)ccc1Cl	Cytochrome P450 2C19 (Homo sapiens)	11.2 µM (active)
Cc1ccc(C)c(NC(=O)NCc2ccc(Cl)cc2)c1	Cytochrome P450 2C19 (Homo sapiens)	1.58 µM (active)

Task: Determine from records and report AC50 for "N#C/C(=C/N1CCOCC1)c1ccccc1"
Result: 4.47 µM (active)

Task: Determine from records and report AC50 for "CSc1nc(-c2ccc(C)cc2)[nH]c1S(=O)(=O)c1ccccc1"
Result: 8.91 µM (active)

Task: Determine from records and report AC50 for "CCOc1ccc2[nH]c(=O)c(CN(CCc3ccccc3)C(=O)N3CCOCC3)cc2c1"
Result: 11.2 µM (active)

Task: Determine from records and report AC50 for "CC1=NN(c2ccccc2)C(=O)C1"
Result: inactive

Task: Determine from records and report AC50 for "COc1cc(NC(=O)c2ccccc2)c(OC)cc1NC(=O)CN1CCN(c2ccccn2)CC1"
Result: 17.8 µM (active)

Task: Determine from records and report AC50 for "CCN(CC)S(=O)(=O)c1cc(C(=O)Nc2ccncc2)ccc1Cl"
Result: 0.01 µM (active)

Task: Determine from records and report AC50 for "CN(Cc1ccco1)c1ncncc1-c1ccccc1C(F)(F)F"
Result: 3.98 µM (active)

Task: Determine from records and report AC50 for "CC(C)=C1C(=O)NN(c2ccc(F)c(Cl)c2)C1=O"
Result: inactive

Task: Determine from records and report AC50 for "COCCn1c(=O)c(-c2cc(F)cc(F)c2)nc2cnc(N(C)C)nc21"
Result: inactive

Task: Determine from records and report AC50 for "CCn1c(=O)cc(OCC(=O)Nc2cccnc2)c2ccccc21"
Result: inactive

Task: Determine from records and report AC50 for "CCCc1cc(=O)oc2cc(OCc3nn[nH]n3)ccc12"
Result: 25.1 µM (active)

Task: Determine from records and report AC50 for "O=C(Nc1cccc(F)c1)N1CC[C@@]2(CCCN(C(=O)c3cnccn3)C2)C1"
Result: inactive

Task: Determine from records and report AC50 for "O=C1CC(=Nc2ccccc2)NN1c1ccccc1"
Result: 5.62 µM (active)

Task: Determine from records and report AC50 for "Cc1c(Cl)cccc1NC(=O)CN1CCC(C(O)(c2ccccc2)c2ccccc2)CC1"
Result: 11.2 µM (active)

Task: Determine from records and report AC50 for "CC[C@@H]1OC(=O)[C@H](C)[C@H](O[C@@H]2C[C@](C)(OC)[C@H](O)[C@H](C)O2)[C@H](C)[C@H](O[C@@H]2O[C@@H](C)C[C@@H](N(C)C)[C@@H]2O)[C@](C)(O)C[C@H](C)C(=NOCOCCOC)[C@H](C)[C@H](O)[C@]1(C)O"
Result: inactive

Task: Determine from records and report AC50 for "CCCc1cc(=O)oc2cc(OCc3cc(OC)c(OC)c(OC)c3)c(Cl)cc12"
Result: inactive

----------
Target: Cytochrome P450 2C19 (Homo sapiens)
Experiment: Cytochrome panel assay with activity outcomes
Conditions: recombinant CYP, pro-luciferin dealkylation, luminescence, p450-cyp2c19; series mostly up to 57.1 µM
Procedure: The P450 gene superfamily is involved in the metabolism and clearance of xenobiotics. This assay used various human CYP P450 isozymes to measure the dealkylation of various pro-luciferin substrates to luciferin. The luciferin is then measured by luminescence after the addition of a luciferase detection reagent. […] Inhibitors and some substrates limit the production of luciferin, and decrease measured luminescence. […] 8, Detection, 1 sec, ViewLux luminescent read […]
Hit rate of the full screen: of about 16,000 compounds, about 5,800 (36%) were called active. Roughly 23% stayed inconclusive and do not appear here. The call rests on the fitted dose curve; in most records, active means well fitted curve in the direction sought with a large enough effect; inconclusive means small, poorly fitted or top-dose-only effect, or effect the other way; inactive means no such curve, though single readings can be large or run the other way. Some of the results follow.
Use one of these outcomes when replying: yes (1) = active, no (0) = inactive

                                   compound  assigned_class
0    COc1ccccc1N1CCN(Cc2cc(=O)n3ccsc3n2)CC1         yes (1)
1  CCCCn1c(SCc2c(C)noc2C)nc2cc(S(N)(=O)=O)ccc21         yes (1)
2  Cc1cc(F)ccc1S(=O)(=O)Nc1ccccc1C(=O)Nc1ccccc1N1CCOCC1         yes (1)
3  COc1ccccc1N1CCN(CCCCNC(=O)c2ccc3ccccc3c2)CC1          no (0)
4  CS(=O)(=O)Nc1ccc([N+](=O)[O-])cc1OC1CCCCC1         yes (1)
5  N=C(N)SCCc1ccc(OCc2ccc([N+](=O)[O-])cc2)cc1          no (0)
6  CN(C)[C@@H]1C(=O)C(C(N)=O)=C(O)[C@]2(O)C(=O)C3=C(O)c4c(O)ccc(Cl)c4[C@H](O)[C@H]3C[C@@H]12          no (0)
7  CS(=O)(=O)Nc1ccc([N+](=O)[O-])cc1Oc1ccccc1          no (0)

Task: Assay result, entry "COc1ccccc1N1CCN(CCCCNS(=O)(=O)c2cccc3c(N(C)C)cccc23)CC1" — outcome?
Result: yes (1)

Task: Assay result, entry CN1CCC2(CC1)C1CN(C)CC=C1C(C#N)=C(N)C2(C#N)C#N (stereo unspecified) — outcome?
Result: no (0)

Task: Assay result, entry "CCCc1ncc(C[n+]2ccccc2C)c(N)n1" — outcome?
Result: no (0)

Task: Assay result, entry "O=[N+]([O-])c1ccc(CSc2ncnc3c2ncn3[C@@H]2O[C@@H](CO)[C@@H](O)[C@H]2O)cc1" — outcome?
Result: no (0)

Task: Assay result, entry "Cc1ccc(CONC(=O)/N=C/N(C)C)cc1" — outcome?
Result: yes (1)

Task: Assay result, entry "CCOC(=O)O[C@]1(C(=O)COC(=O)CC)CC[C@@H]2[C@@H]3CCC4=CC(=O)C=C[C@@]4(C)[C@H]3[C@H](O)C[C@]21C" — outcome?
Result: no (0)

Task: Assay result, entry "C=CCNC(=O)c1csc(-c2ccccc2)n1" — outcome?
Result: yes (1)

Task: Assay result, entry "Cc1ccc(-c2[nH]n3c(=O)c4c(nc3c2C)CCCC4)cc1" — outcome?
Result: yes (1)

Task: Assay result, entry "O=[N+]([O-])c1ccc(CSCc2ccc(Cl)cc2)cc1" — outcome?
Result: yes (1)

Task: Assay result, entry "O=C(Nc1ccccc1N1CCOCC1)c1ccccc1[N+](=O)[O-]" — outcome?
Result: no (0)

Task: Assay result, entry "CCCCSc1nc(C)cc(C)c1S(=O)(=O)c1ccccc1C" — outcome?
Result: yes (1)

Task: Assay result, entry "NS(=O)(=O)c1cc2c(cc1C(F)(F)F)N[C@H](Cc1ccccc1)NS2(=O)=O" — outcome?
Result: no (0)

Task: Assay result, entry "COc1ccccc1N1CCN(CCCCNC(=O)c2ccc(-c3ccc(C(C)=O)cc3)cc2)CC1" — outcome?
Result: yes (1)
